Each entry below lists one item and its recorded pKi value.
target: Human immunodeficiency virus type 1 protease (Human immunodeficiency virus 1, UniProt Q72874)
Conceptually, pKi converts a concentration in mol/L into minus its log10.

Use the examples below as a reference point.
COC(=O)CC[C@H](NC(=O)[C@H](NCc1ccc(OC)cc1)[C@H](O)[C@H](Cc1ccccc1)NC(=O)[C@@H](NC(=O)OCc1ccccc1)C(C)C)C(=O)NCc1ccc(OC)cc1O
8.22
CC(C)(C)[C@H](NC(=O)OCc1ccccc1)C(=O)N[C@@H](Cc1ccccc1)[C@@H](O)[C@@H](NCc1ccc(CNC(=O)CCc2nc3ccccc3[nH]2)cc1)C(=O)NCc1ccccc1
7.27

Item COc1ccc(CN[C@@H](C(=O)NC2c3ccccc3C[C@H]2O)[C@H](O)[C@H](Cc2ccccc2)NC(=O)[C@@H](NC(=O)C(O)Cc2ccccc2)C(C)(C)C)cc1 (stereo not given in full) has what recorded pKi?
7.85

Fill in: pKi of COc1ccc(CN[C@@H](C(=O)N[C@H](C(=O)NCCn2cnc3ccccc32)C(C)C)[C@H](O)[C@H](Cc2ccccc2)NC(=O)[C@@H](NC(=O)OCc2ccccc2)C(C)C)cc1 is ___
7.72

Look up pKi for this compound: COc1ccc(CN[C@@H](C(=O)N[C@H](C(=O)NCn2nnc3ccccc32)C(C)C)[C@H](O)[C@H](Cc2ccccc2)NC(=O)[C@@H](NC(=O)OCc2ccccc2)C(C)C)cc1
7.82
